All figures here come from the supplement of paper PMC10567573.

# protein stability index values compiled below
B1: FBF1 (parent)
chain: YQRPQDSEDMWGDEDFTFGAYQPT

# Variants of: B1
# Protocol Summary: protein stability index of a GFP-peptide fusion (GPS, HEK-293T) (PSI 1-6); higher = more stable;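 further: lentivirally expressed fusions sorted by FACS into six bins by GFP to DsRed ratio, PSI derived from sequencing read proportions per bin multiplied by bin number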
# Run Conditions: c terminus: a fixed tail appended

# Mutation, protein stability index
measured = [
    ("F18I", 3.06),
    ("A20P", 2.92),
    ("P23Q", 3.06),
    ("Q5L", 2.09),
    ("F18K", 3.6),
    ("F16Q", 3.4),
    ("Q5S", 2.98),
    ("D15G", 2.13),
    ("Q2I", 2.08),
    ("Q2E", 4.26),
    ("Q5T", 3.18),
    ("G19M", 2.88),
    ("R3T", 2.62),
    ("W11V", 4.25),
    ("E8L", 2.1),
    ("T24I", 2.24),
    ("R3P", 3.87),
    ("D13Q", 1.79),
    ("R3M", 3.2),
    ("S7F", 2.41),
    ("F18M", 3.25),
    ("F16V", 2.88),
    ("Y1C", 3.54),
    ("W11S", 4.79),
    ("E8I", 1.95),
    ("Q22H", 2.43),
    ("Y1Q", 4.23),
    ("G19N", 3.1),
    ("Y21H", 3.07),
    ("Q22R", 2.65),
    ("M10P", 3.34),
    ("D13N", 2.07),
    ("M10Y", 3.11),
    ("P23E", 3.36),
    ("T17D", 3.37),
    ("Q22F", 2.38),
    ("T17W", 1.84),
    ("Q22I", 2.45),
    ("Q2P", 3.05),
    ("T24S", 2.67),
    ("P23H", 3.32),
    ("Y21W", 2.04),
    ("R3I", 2.87),
    ("D13C", 1.74),
    ("D6I", 1.98),
    ("F16E", 3.73),
    ("P23D", 3.06),
    ("D6S", 2.24),
    ("T17C", 2.65),
    ("Q22V", 2.37),
    ("M10T", 3.73),
    ("G12D", 4.15),
    ("Q2G", 3.76),
    ("R3V", 3.5),
    ("Y21F", 2.98),
    ("D15S", 2.16),
    ("E8H", 2.01),
    ("A20L", 2.76),
    ("D6C", 2.06),
    ("F16C", 2.85),
    ("G12M", 3.12),
    ("Q22K", 1.95),
    ("D9M", 1.55),
    ("G19W", 1.84),
    ("M10L", 2.25),
    ("Y1P", 4.71),
    ("Q2K", 3.81),
    ("T17I", 2.36),
    ("G19I", 2.64),
    ("G12H", 2.85),
    ("W11R", 4.43),
    ("Y1I", 3.95),
    ("G19D", 3.49),
    ("A20Q", 2.97),
    ("D6W", 1.64),
    ("Q5I", 2.26),
    ("D9R", 2.34),
    ("G19P", 2.77),
    ("P23M", 2.26),
    ("W11T", 4.33),
    ("P4S", 2.54),
    ("A20Y", 2.79),
]
